System: NCI-H522 lung
Test: NCI-60 one-dose screen, 48 h (100 = growth as untreated, 0 = no growth, -100 = all killed)
Details: 10 µM unless noted
Protocol: Growth inhibition of the NCI-H522 human Non-Small Cell Lung tumor cell line is measured as a screen for anti-cancer activity. Cells are grown in 96 well plates and exposed to the test compound for 48 hours. Compounds are tested at a single concentration, which is 10^-5 M for most compounds. The reported endpoint is percent growth (GI% or GIPRCNT), where numbers from 0 - 100% represent growth inhibition, and numbers from -100% - 0 represent cell death. […]
This is part of a sample that, as a whole, favours compounds with a hit. Of some 83,000 tested, about 20% had one in any assay.
Can you tell me growth for the items I'm about to list?
Please reply with the bare figure in % and do not write the unit itself.

Recorded growth of O=C(NCCc1ccccn1)OCc1nc2nc(Cl)nc(N3CCOCC3)c2[nH]1 , please. -34.4

Recorded growth of O=C1NC(=O)C(=Cc2cn(Cc3ccccn3)c3ccccc23)C(=O)N1 , please. 92.6

Recorded growth of COc1ccc(C(=O)/C=C/c2cn(Cc3ccc(Cl)cc3)c3ccccc23)cc1 , please. 26.5

Recorded growth of Cc1cccc(Oc2ccc(Nc3ncnc4ccc(NC(=O)CN(C)C)cc34)cc2Cl)c1 , please. 30

Recorded growth of CC(C)Cc1ccc(C(C)C(=O)NCc2ccc(Cn3c(=O)sn(-c4ccc(Cl)cc4)c3=O)cc2)cc1 (stereo not given) , please. 91.9

Recorded growth of CC(O)/C=C/C=C/C(O)CC/C=C/C(=O)NCC(C)(C)O (stereo not given) , please. 79.4

Recorded growth of O=C(Nc1ccc(Nc2ncccn2)cc1)NC1C=c2ccccc2=CC1 (stereo not given) , please. 99.3

Recorded growth of Clc1cc(Cl)cc(N2N=C(c3cccc(Nc4ccncc4)c3)CC2c2ccc3c(c2)OCO3)c1 (stereo not given) , please. -5.89

Recorded growth of O=S(=O)(c1ccccc1)N1CCCc2ccccc21 , please. 82.2

Recorded growth of NNC(=O)/C(=C\c1ccc([N+](=O)[O-])cc1)CC(=O)c1ccc(Cl)c(Cl)c1 , please. 77.2

Recorded growth of CC(C)C1C2=C(NCCN1C(=O)Cc1ccccc1)C(C)(C)N(Cc1ccccc1)C2=O (stereo not given) , please. 93.6

Recorded growth of COc1ccc(/C=N/NC(=O)c2cccc3cc[nH]c23)cc1O , please. 54.8

Recorded growth of COC(=O)N[C@H]1CCc2cc(OC)c(OC)c(OC)c2-c2ccc(SC)c(=O)cc21 , please. -17.9

Recorded growth of CS(=O)(=O)c1ccc(-c2cc3c(oc2=O)-c2ccccc2OC3O)cc1 (stereo not given) , please. 92.7

Recorded growth of CC(=O)OCC(=O)[C@@]1(O)CC[C@H]2[C@@H]3CC(=C(Br)Br)C4=CC(=O)CC[C@]4(C)[C@H]3C(=O)C[C@@]21C , please. 66.6

Recorded growth of FC(F)(F)c1cccc(Nc2ccccc2)c1 , please. 98.6

Recorded growth of O=S(=O)(NCCNc1nccc(-c2c(-c3cccc(F)c3)nc3occn23)n1)c1cccc2ccccc12 , please. 46.2

Recorded growth of Cc1ccc(C2C3CC4CCCCC4N3[C@@]3(C(=O)Nc4cc(Cl)ccc43)C2C(=O)c2nc3ccccc3[nH]2)cc1 (stereo not given in full) , please. 54

Recorded growth of CCCCN(CCCC)CCc1c(C)cc(C)c(CCN(CCCC)CCCC)c1O , please. -6.82

Recorded growth of CCCCCCN(C)Cc1ccc(OCCOc2ccc(CN(C)CCCCCC)cc2)cc1 , please. 35.3

----------
Tested on: OVCAR-8 ovarian
Experiment: NCI-60 one-dose screen, 48 h (100 = growth as untreated, 0 = no growth, -100 = all killed)
Conditions: 10 µM unless noted
The panel holds about 83,000 compounds, 20% with a hit somewhere; the sample as a whole holds those more often.
Response field label takes 1 when growth is strictly below 40% and 0 in all other cases.

Is growth of O=C1Nc2ccccc2/C1=N/c1nc(-c2ccc(Cl)cc2)cs1 strictly below 40%? 0

Is growth of C=CCn1c(SCC(=O)Nc2ccc(C(=O)/C=C/c3cc(OC)c(OC)c(OC)c3)cc2)nnc1-c1cc(-c2ccc(S(C)(=O)=O)cc2)nc2ccccc12 strictly below 40%? 0

Is growth of Clc1ccc2c(c1)c(-c1ccccc1)nc1nncn12 strictly below 40%? 0

Is growth of Cc1cc(C(=O)Nc2ncnc3nc[nH]c23)no1 strictly below 40%? 0

Is growth of CCOc1cc(CNc2ccc(N3CCOCC3)c(C(=O)O)c2)ccc1OC strictly below 40%? 0

Is growth of Fc1cc(C2=NNC(c3ccc[nH]3)C2)ccc1-n1ccc(C(F)(F)F)n1 (stereo not given) strictly below 40%? 0

Is growth of Cc1cc(Nc2cccc(C(F)(F)F)c2)n2c(nc3ccccc32)c1C#N strictly below 40%? 0

Is growth of O=C(O)CNC(=O)CN1C(=O)c2ccccc2C1=O strictly below 40%? 0

Is growth of Cc1nn(-c2ccccc2)c(N2CCOCC2)c1/C=N/N=c1\sc2ccccc2n1C strictly below 40%? 0

Is growth of C=C1C(=O)O[C@H]2[C@H]1CC/C(COC(=O)/C=C/c1c[nH]c3ccccc13)=C\CC[C@@]1(C)O[C@@H]21 strictly below 40%? 1

Is growth of O=C(Nc1nc2ccc(C(=O)N3CCN(c4ccc(Cl)c(Cl)c4)CC3)cc2s1)c1ccc(NCCc2ccccc2)c([N+](=O)[O-])c1 strictly below 40%? 0

Is growth of O=[N+]([O-])c1cccc(-c2nc(-c3ccc(Cl)cc3Cl)cn2-c2ccccc2)c1 strictly below 40%? 1

Is growth of COc1ccccc1OCC(=O)N1CCCCCC1 strictly below 40%? 0

Is growth of CCCCCCCCOc1ccc(/C=N/Nc2cc(C)nc3ccc(Cl)cc23)cc1 strictly below 40%? 1

Is growth of O=C(Nc1ccc(F)cc1)c1c(NC(=O)C(F)(F)F)sc2c1CCCCC2 strictly below 40%? 1

Is growth of C=C1C(=O)O[C@H]2[C@H]1CC/C(CNC(=O)/C=C/c1ccc(Br)cc1)=C\CC[C@@]1(C)O[C@@H]21 strictly below 40%? 1

Is growth of FC(F)(F)c1cccc(Nc2ccccc2)c1 strictly below 40%? 0

Is growth of COc1ccc(C(=O)c2cc3c(N)c(C(=O)Nc4ccc(Br)cc4)sc3nc2C)cc1 strictly below 40%? 1

Is growth of CC(Oc1ccc(C(=O)NS(=O)(=O)C(C)(C)C)cc1C(F)(F)F)c1ccc(Oc2ccccc2)cn1 (stereo not given) strictly below 40%? 0

Is growth of c1ccc(C2CC(c3cccc(Nc4ccncc4)c3)=NN2c2ccccc2)cc1 (stereo not given) strictly below 40%? 0

----------
Can you tell me growth for the items I'm about to list?
Tested on: KM12 colon
Assay: NCI-60 one-dose screen, 48 h (100 = growth as untreated, 0 = no growth, -100 = all killed)
Conditions: 10 µM unless noted
This is part of a sample that, as a whole, favours compounds with a hit. Of some 83,000 tested, about 20% had one in any assay. Activity calls are given as the source filed them. The calls were made as follows: active = growth percent below 10; inactive = the rest.

Param readout= growth; system= KM12 colon; entry= CC1=CC[C@@H]2CC[C@]3(C)[C@H](CC[C@@H]4[C@@]5(C)CCCNC(C)(C)[C@@H]5CC[C@]43C)[C@H]2[C@@H]1C ; returns value. -53% (active)

Param readout= growth; system= KM12 colon; entry= C#Cc1cccc(NC(=O)Nc2ccc(NC(=O)CCl)cc2)c1 ; returns value. -27.2% [8.25 µM] (active)

Param readout= growth; system= KM12 colon; entry= O=C(/C=C/c1ccc[nH]1)c1ccc(-n2ccc(C(F)(F)F)n2)cc1 ; returns value. 1.59% (active)

Param readout= growth; system= KM12 colon; entry= c1ccc(C2CC(c3cccc(Nc4ccncc4)c3)=NN2c2ccccc2)cc1 (centres undefined) ; returns value. 44.7% (inactive)

Param readout= growth; system= KM12 colon; entry= O=[N+]([O-])c1cccc(-c2nc(-c3ccc(Cl)cc3Cl)cn2-c2ccccc2)c1 ; returns value. -64.4% (active)

Param readout= growth; system= KM12 colon; entry= NS(=O)(=O)c1cccc(NC(=O)C(=O)C2C(=O)Nc3ccccc32)c1 (centres undefined) ; returns value. 103% (inactive)

Param readout= growth; system= KM12 colon; entry= COc1ccc(-c2nc(N/N=C/c3ccco3)nc(N3CCOCC3)c2C#N)cc1 ; returns value. 86.7% (inactive)

Param readout= growth; system= KM12 colon; entry= Cc1cccc(Oc2ccc(Nc3ncnc4ccc(NC(=O)CNCCO)cc34)cc2Cl)c1 ; returns value. 76.8% (inactive)

Param readout= growth; system= KM12 colon; entry= COc1cc2nc(-c3ccc(C(F)(F)F)cc3)cc(OCCCN3CCC(O)CC3)c2cc1OC ; returns value. 26.5% (inactive)

Param readout= growth; system= KM12 colon; entry= Clc1nc(Nc2ccccc2)nc(Nc2ccccc2)n1 ; returns value. 102% (inactive)

Param readout= growth; system= KM12 colon; entry= COc1ccc(Nn2c(SCC(=O)Nc3nc(-c4ccc(Cl)cc4)cs3)nc(C)c2C)cc1 ; returns value. 43.1% (inactive)

Param readout= growth; system= KM12 colon; entry= O=C1C(=O)c2c(nc3ncccn23)-c2ccccc21 ; returns value. -62.6% (active)

Param readout= growth; system= KM12 colon; entry= COc1ccc(C(=O)c2cc3c(N)c(C(=O)Nc4cccc(Cl)c4)sc3nc2C)cc1 ; returns value. 22.1% (inactive)

Param readout= growth; system= KM12 colon; entry= COc1cc(C2CC(c3cccc(Nc4ccncc4)c3)=NN2c2cc(Cl)cc(Cl)c2)cc(OC)c1OC (centres undefined) ; returns value. -75.7% (active)

Param readout= growth; system= KM12 colon; entry= C#CCNC(=O)[C@H](Cc1ccccc1)NC(=O)[C@]12CC[C@@H](C(=C)C)[C@@H]1[C@H]1CC[C@@H]3[C@@]4(C)Cc5c([nH]c6ccccc56)C(C)(C)[C@@H]4CC[C@@]3(C)[C@]1(C)CC2 ; returns value. 103% (inactive)

Param readout= growth; system= KM12 colon; entry= Cc1cc2nc(-c3ccccc3)c(-c3ccccc3)nc2cc1C ; returns value. 104% (inactive)

Param readout= growth; system= KM12 colon; entry= C[C@H]1[C@H](C)CC[C@]2(CO)CC[C@]3(C)C(=CC[C@@H]4[C@@]5(C)CCCNC(C)(C)[C@@H]5CC[C@]43C)[C@H]12 ; returns value. 0.124% (active)

Param readout= growth; system= KM12 colon; entry= CC(C)Cc1ccc(C(C)C(=O)NCc2ccc(Cn3c(=O)sn(-c4ccc(Cl)cc4)c3=O)cc2)cc1 (centres undefined) ; returns value. 69.8% (inactive)

Param readout= growth; system= KM12 colon; entry= O=c1[nH]c2c(s1)CCCC2CN1CCCCC1 (centres undefined) ; returns value. 108% (inactive)

Provenance of the data: PubChem BioAssay (NCI)
